Can you tell me pIC50 for the items I'm about to list?
molecular target: Cyclin E/CDK2 (Homo sapiens, UniProt P24941); construct: The expressed protein was approximately 34 kDa in size; assay: Cyclin E/CDK2 in vitro kinase assay (SPA, 33P-ATP, biotinylated Histone H1 peptide); conditions: recombinant cyclin E/CDK2 from SF9 cells; 8 point serial dilutions in duplicate; 1 hour at room temperature
One number for each entry, as −log10 of the molar value.

Please review the entries below; each comes with its answer.
CCNS(=O)(=O)c1ccc(Nc2cc(-c3ccccc3)nc3c(Br)cnn23)cc1
7.10
NS(=O)(=O)c1ccc(Nc2cc(-c3ccccc3)nc3c(Br)cnn23)cc1
7.35
O=S(=O)(NC(CO)CO)c1ccc(Nc2cc(-c3ccccc3)nc3c(Br)cnn23)cc1
7.52

# ---- query molecule ----
Request body: readout pIC50, system Cyclin E/CDK2 (Homo sapiens, UniProt P24941), query O=S(=O)(Nc1ccncc1)c1ccc(Nc2cc(-c3ccccc3)nc3c(Br)cnn23)cc1 . Return the value.
7.40

----------
Answer each item with its documented melting point.

NS(=O)(=O)c1ccc(Nc2cc(-c3ccccc3)nc3c(Br)cnn23)cc1
206 to 208 °C

Would you mind listing melting point for each of the following compounds?
1. CCNS(=O)(=O)c1ccc(Nc2cc(-c3ccccc3)nc3c(Br)cnn23)cc1
2. O=S(=O)(NCCO)c1ccc(Nc2cc(-c3ccccc3)nc3c(Br)cnn23)cc1
3. CCc1cnn2c(Nc3ccc(S(C)(=O)=O)cc3)cc(-c3ccccc3)nc12
4. CC(C)c1cnn2c(Nc3ccc(S(C)(=O)=O)cc3)cc(-c3ccccc3)nc12
5. O=S(=O)(NCc1ccccc1)c1ccc(Nc2cc(-c3ccccc3)nc3c(Br)cnn23)cc1
6. O=S(=O)(NC1CCCC1)c1ccc(Nc2cc(-c3ccccc3)nc3c(Br)cnn23)cc1

1. 101 to 104 °C
2. 175 to 177 °C
3. 192 to 194 °C
4. 213 to 216 °C
5. 216 to 218 °C
6. > 200 °C (dec.)

// each compound listed below needs its melting point
1. O=S(=O)(NCCCO)c1ccc(Nc2cc(-c3ccccc3)nc3c(Br)cnn23)cc1
2. CS(=O)(=O)c1ccc(Nc2cc(-c3ccccc3)nc3c(C4CC4)cnn23)cc1

1: 165 to 168 °C; 2: 210 to 211 °C

----------
Provide the reported pIC50 of each item.
biological target: Cyclin E/CDK2 (Homo sapiens); construct: The expressed protein was approximately 34 kDa in size; test: Cyclin E/CDK2 in vitro kinase assay (SPA, 33P-ATP, biotinylated Histone H1 peptide); conditions: recombinant cyclin E/CDK2 from SF9 cells; 8 point serial dilutions in duplicate; 1 hour at room temperature
One number for each entry, as −log10 of the molar value.

Solved entries (count: 3):
CN(C)CC(C)(C)CNS(=O)(=O)c1ccc(Nc2cc(-c3ccccc3)nc3c(Br)cnn23)cc1
7.60
Clc1ccccc1-c1cc(Nc2ccccc2)n2ncc(Br)c2n1
6.29
CN(C)CCNS(=O)(=O)c1ccc(Nc2cc(-c3ccccc3)nc3c(Br)cnn23)cc1
7.47

Please supply pIC50 for each of the following items, keeping them in order.
1. Fc1ccccc1-c1cc(Nc2ccccc2)n2ncc(Cl)c2n1
2. O=S(=O)(O)c1ccc(Nc2cc(-c3ccccc3)nc3c(Br)cnn23)cc1
3. COCCNS(=O)(=O)c1ccc(Nc2cc(-c3ccccc3)nc3c(Br)cnn23)cc1
4. CN(C)CCCNS(=O)(=O)c1ccc(Nc2cc(-c3ccccc3)nc3c(Br)cnn23)cc1
5. CNS(=O)(=O)c1ccc(Nc2cc(-c3ccccc3)nc3c(Br)cnn23)cc1
6. O=S(=O)(NCCO)c1ccc(Nc2cc(-c3ccccc3)nc3c(Br)cnn23)cc1
7. O=S(=O)(c1ccc(Nc2cc(-c3ccccc3)nc3c(Br)cnn23)cc1)N(CCO)CCO

7.38
7.09
7.15
7.96
7.24
7.54
7.47
